These data points were gathered from the supplement of paper PMC6555819.

Each entry below carries its recorded PBM binding z-score.
- Tested on: VDR:RXRa (NR concentration 270 nM, RXRa partner concentration 90 nM)
- method: PBM binding z-score (relative to random genomic background probes); higher = stronger binding; sequences stand for … in GC…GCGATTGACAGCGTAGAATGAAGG
result.type: PBM binding z-score

| sequence.string | result.type | test.result |
| --- | --- | --- |
| CCTGCTAGGTCAATGGTCAGGTAAAGCAGCTCGC | PBM binding z-score | 0.722 |
| ACTAGTTGGTCAGCTCAGGTCACACACAATTCGG | PBM binding z-score | 2.23 |
| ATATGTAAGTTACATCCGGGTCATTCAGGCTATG | PBM binding z-score | 3.56 |
| CGTCCAAGGTCAGAGAGGTCAGTGATTGCCGAGT | PBM binding z-score | 7.23 |
| CGTCCAAGGTCAAGGTCAGGGAAAGAGACTCGAA | PBM binding z-score | 4.97 |
| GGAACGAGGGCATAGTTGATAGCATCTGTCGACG | PBM binding z-score | 0.655 |
| CGTCCAAGGTCAAAGGTCAGTGATGAGATGACGG | PBM binding z-score | 6.62 |
| TTACCAAGGTGAGCTGAGGTAGTTGATCCAACTC | PBM binding z-score | -0.45 |
| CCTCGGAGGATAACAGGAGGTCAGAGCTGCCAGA | PBM binding z-score | 1.5 |
| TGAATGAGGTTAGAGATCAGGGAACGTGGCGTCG | PBM binding z-score | 0.296 |
| CCCTACGGGTCACGAGGTTATAGCACGACGAGCG | PBM binding z-score | 5.13 |
| TCTATTAGTTGAAGGGCAACCGGCGAGTCCGTTT | PBM binding z-score | 0.946 |
| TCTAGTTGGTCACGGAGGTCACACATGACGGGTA | PBM binding z-score | 5.83 |
| CAAACTAGGTCACGAAAGGTAAAAGTCGAATGAC | PBM binding z-score | 3.25 |
| CCTTACGGGTCACCAGGTTATAGCACGACGAGCG | PBM binding z-score | 4.64 |
| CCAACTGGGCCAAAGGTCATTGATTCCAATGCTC | PBM binding z-score | 4.72 |
| CCTAGGTGGTCAAGGTCACACACGCTATAGGTAC | PBM binding z-score | 4.76 |
| GCTAGCAAGCCATTTGGGTCACTCAATGACGGGC | PBM binding z-score | -0.0244 |
| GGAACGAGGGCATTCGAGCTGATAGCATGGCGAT | PBM binding z-score | 0.809 |
| TATCCTAGGTCATTCAGGGGCCAGTATAGAAAGC | PBM binding z-score | 3.57 |
| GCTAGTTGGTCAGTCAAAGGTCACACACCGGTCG | PBM binding z-score | 4.3 |
| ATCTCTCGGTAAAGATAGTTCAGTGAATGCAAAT | PBM binding z-score | 0.595 |
| GGACCGAGGGCAAGTTGATAGCAGAGTTTGATGG | PBM binding z-score | 0.844 |
| TCCAGTTGGTCACGGAGGTCACACACGACGGGTA | PBM binding z-score | 5.75 |
| AGATCGAGGGCACGCTGAGTTGATAGCAGAGTAG | PBM binding z-score | 1.85 |
| CCTTACGCGTCACTCCAGGTTATAGCATCGGAGT | PBM binding z-score | 0.361 |
| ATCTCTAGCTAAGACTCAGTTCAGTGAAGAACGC | PBM binding z-score | 0.552 |
| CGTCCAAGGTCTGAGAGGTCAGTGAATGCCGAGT | PBM binding z-score | 3.29 |
| CGTCCAAGGTCAATGCTAGGTCATTGAAAGCATT | PBM binding z-score | 5.84 |
| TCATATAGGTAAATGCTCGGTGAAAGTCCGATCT | PBM binding z-score | 1.01 |
| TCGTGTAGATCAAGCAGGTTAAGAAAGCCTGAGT | PBM binding z-score | 0.56 |
| ATATGTAGGTTACATCCGTGTCATTCAGGCTATG | PBM binding z-score | 1.4 |
| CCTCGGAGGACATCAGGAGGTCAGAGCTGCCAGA | PBM binding z-score | 1.99 |
| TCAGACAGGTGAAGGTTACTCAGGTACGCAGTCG | PBM binding z-score | 1.69 |
| CGTCCAAGGTCAATGCTAGGTTAGTGAAAGCATT | PBM binding z-score | 4.02 |
| GCTTACGGGTCAAAGGATATAGCATGAATAGAAT | PBM binding z-score | 3.16 |
| ACTTACGGGTCAACGAGGTTCTAGCACGCGTATA | PBM binding z-score | 6.52 |
| CGTCAACGTTCAAGGTAACGTAACAGAAAGCAGC | PBM binding z-score | -0.14 |
| CCGACTGGGGTATAAGGTTACCATAAGCCAGCCC | PBM binding z-score | 0.219 |
| CAAACTACGTCAAGGTCAAAGTCGGTTTGTGCCA | PBM binding z-score | 4.45 |
| CCGCGTAGGTTATGGGGCATTCAGGCAACGGTGA | PBM binding z-score | -0.207 |
| CCTACTGGGCCACGAAAGGTCATTGACTCAGTGA | PBM binding z-score | 4.12 |
| ACTATCAGTTGACTTAGGGCAACCGATACGACGC | PBM binding z-score | 0.408 |
| ATCTCTAGGTAACCAATTTCAGTGAATGCCGAAC | PBM binding z-score | 0.336 |
| AGAGACAGGTGATGAAGGTAACTCAGGCTATCAT | PBM binding z-score | 0.424 |
| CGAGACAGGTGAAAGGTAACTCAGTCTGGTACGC | PBM binding z-score | 0.633 |
| GCGACTGGGGCATCAGCTGGTTACCATAACTTAA | PBM binding z-score | -0.49 |
| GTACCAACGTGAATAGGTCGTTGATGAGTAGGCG | PBM binding z-score | -0.204 |
| CAAACTTGGTCACGAAAGGTCAAAGTCGAATGAC | PBM binding z-score | 5.37 |
| TAGCCTAGGTCATTCAAGGGCCAGTATAGAAAGC | PBM binding z-score | 2.89 |
| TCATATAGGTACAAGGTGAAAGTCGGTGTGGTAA | PBM binding z-score | 1.22 |
